# RUN_DESCRIPTION: pharmacokinetic parameters in rats
# REPORTED_CONDITIONS: rat, in vivo, read-out: volume of distribution
# Excerpt: The pharmacokinetic parameters of both compounds have been evaluated in both rats and dogs.
METRIC_NAME: Vd

Cc1cc(F)ccc1-c1cc(N2CCS(=O)(=O)CC2)ncc1N(C)C(=O)C(C)(C)c1cc(C(F)(F)F)cc(C(F)(F)F)c1
0.7 L/kg

Here is another molecule to look at.
The recorded Vd for Cc1ccccc1-c1cc(N2CCS(=O)(=O)CC2)ncc1N(C)C(=O)C(C)(C)c1cc(C(F)(F)F)cc(C(F)(F)F)c1 is 4 L/kg

* * *

# RUN_DESCRIPTION: pharmacokinetic parameters in dogs
# REPORTED_CONDITIONS: dog, in vivo
For each record, write down the corresponding clearance.
One number for each entry, in mL/min/kg.

Cc1ccccc1-c1cc(N2CCS(=O)(=O)CC2)ncc1N(C)C(=O)C(C)(C)c1cc(C(F)(F)F)cc(C(F)(F)F)c1
5

Moving on to the next compound.
Entry Cc1cc(F)ccc1-c1cc(N2CCS(=O)(=O)CC2)ncc1N(C)C(=O)C(C)(C)c1cc(C(F)(F)F)cc(C(F)(F)F)c1 — recorded clearance = 1.4

Cited source for all entries: patent US6849624B2
